# Tested on: Wnt5a (protein binding on small-molecule microarray)
# method: Wnt5a binders on small-molecule microarray, primary screen, biophysical, 635/667 nm fluorescence (AID 1142);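 note: fluorescence read at 667 nm with signal to noise per printed feature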
# conditionLabel: 635 nm fluorescence, higher = more signal
If the reported composite z-score equals or exceeds 0.09, assign true (1). If not, assign false (0).

Solved cases (5 shown):
[
  {
    "molecule": "CN1C=C(C(=O)OCCS(C)(=O)=O)C(C(=O)OCCS(C)(=O)=O)=CC(c2ccc(CO)cc2)=CC1C1CC1 (centres undefined)",
    "classAssignment": "true (1)"
  },
  {
    "molecule": "[N-]=[N+]=NCc1ccccc1[C@@H]1OC(c2ccc(OCCCO)cc2)=N[C@]1(Cc1ccccc1)C(=O)NCC(O)CO (some centres undefined)",
    "classAssignment": "true (1)"
  },
  {
    "molecule": "COCCOC(=O)N1C(=O)[C@@]2(c3ccccc31)[C@H](C(=O)N1CCc3cc(OC)c(OC)cc3C1)[C@H]1C(=O)O[C@H](c3ccccc3)[C@H](c3ccccc3)N1[C@@H]2c1ccc(OCCO)cc1",
    "classAssignment": "true (1)"
  },
  {
    "molecule": "O=C1C2C=CC(C(O)c3cccc4ccccc34)N(Nc3ccccc3F)C2C(=O)N1c1ccccc1 (centres undefined)",
    "classAssignment": "true (1)"
  },
  {
    "molecule": "C=CCOC(=O)[C@H]1[C@@H]2C(=O)O[C@@H](c3ccccc3)[C@@H](c3ccccc3)N2[C@@H](c2ccc(OCCOC(=O)[C@@H]3C[C@@H]4C(=O)N[C@@H](CCCCNC(C)=O)C(=O)N4[C@@H]3c3ccc(O)cc3)cc2)[C@]12C(=O)Nc1ccccc12",
    "classAssignment": "true (1)"
  }
]

# check: composite z-score of CC(C)NC(=O)[C@@]1(c2ccc([N+](=O)[O-])cc2)CC(=O)N(C2CCCCC2)[C@@H]1c1ccc(CO)cc1I is greater than or equal to 0.09
false (0)

# check: composite z-score of O=C1O[C@H](c2ccccc2)[C@H](c2ccccc2)N2[C@H]1[C@@H](C(=O)N1CCCCCCC1)[C@]1(C(=O)Nc3ccc(C#CCCO)cc31)[C@H]2c1ccccc1OCCO is greater than or equal to 0.09
true (1)

# check: composite z-score of NCCCCCNC(=O)[C@@H]1C[C@@H]2C(=O)N[C@@H](Cc3ccccc3)C(=O)N2[C@@H]1c1ccc(O)cc1 is greater than or equal to 0.09
false (0)

# check: composite z-score of CCOC(=O)C1=C[C@@H](C(C)(C)C)N(S(=O)(=O)c2ccc(C)cc2)[C@H]1c1ccc(F)cc1 is greater than or equal to 0.09
true (1)

* * *

# method: small-molecule binders of probe aLefty1, primary screen, biochemical, small-molecule microarray, 635/667 nm fluorescence (AID 1153);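 note: score merges spot fluorescence with signal-to-noise ratio from the scanned slide images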
# conditionLabel: higher = more signal
assayEndpoint: composite z-score

[
  {
    "molecule": "COC(=O)[C@@]1(Cc2ccc(OC)cc2)[C@H]2c3cc(C(=O)N(C)C)n(C)c3C[C@H]2CN1C(=O)c1ccccc1",
    "composite z-score": 1.56
  }
]

Give composite z-score for all molecules that follow.
1. C=C[C@H](CO[Si](CC)(CC)CC)N(Cc1ccc(OC(C)=O)c(OC)c1)S(=O)(=O)c1ccc(Br)cc1
2. CN(C)CCCCCCNC(=O)[C@@H]1C[C@@H]2C(=O)N[C@@H](Cc3ccccc3)C(=O)N2[C@@H]1c1ccc(O)cc1
3. CC(C)C(CO)N1C(=O)[C@@H]2C3C(=O)OCCC/C=C\[C@H]3OC23C=CCN(CCN2CCOCC2)C(=O)[C@@H]13 (stereo partly drawn)
4. COC(=O)[C@]1(CCC(=O)OC(C)(C)C)N=C(c2ccc(OCCCO)cc2)O[C@@H]1c1ccccc1CN=[N+]=[N-]
5. CC(C)C(=C=CC[C@H](O)c1ccc(OCCO)cc1)CCO
6. C=CCNC(=O)[C@H]1[C@@H]2C(=O)O[C@@H](c3ccccc3)[C@@H](c3ccccc3)N2[C@@H](c2ccccc2OCCO)[C@]12C(=O)Nc1ccc(C#CCC(C(=O)OC)C(=O)OC)cc12

0.698
0.378
-0.07
0.235
0.0945
0.924

Give composite z-score for all molecules that follow.
1. COc1cc(COC(C)=O)ccc1OC(C)=O
2. O=C(NCCO)C1=C[C@H](Oc2ccccc2I)[C@@H](O)[C@H](N(Cc2ccco2)C(=O)Cc2ccccc2)C1

1: 0.383; 2: 0.0752

Give composite z-score for all molecules that follow.
1. CC1CC/C=C\[C@H]2OC34C=CCN(C(C)(C)C)C(=O)[C@H]3N(CCO)C(=O)[C@@H]4C2C(=O)O1 (stereo partly drawn)
2. [N-]=[N+]=NCc1ccccc1[C@@H]1OC(c2ccc(OCCCO)cc2)=N[C@]1(Cc1ccccc1)C(=O)NCC(O)CO (stereo partly drawn)
3. O[C@@H](Cc1ccccc1)[C@H]1C2C=CCCC=C2CN1Cc1cccc(Cl)c1 (stereo partly drawn)
4. C=C(C)[C@@H]1CC=C(C(O)C2C=CC3C(=O)N(C)C(=O)C3N2Nc2ccccc2)CC1 (stereo partly drawn)
5. CCOC(=O)C[C@H]1[C@H](OC(=O)c2ccc(C(=O)c3ccccc3)cc2)[C@@H](NC(=O)CC(C)C)c2cc(OCCCO)ccc2N1C(=O)c1ccc2ccccc2n1
6. C=CCC(OC(C)=O)[C@@H]1[C@@H](N(Cc2ccc(-c3cccc(C(F)(F)F)c3)o2)C(=O)c2ccc(C)cc2)c2cc(OCCCO)ccc2N1C(=O)Cc1ccc2ccccc2c1 (stereo partly drawn)
7. COc1ccccc1CN1C(=O)c2ccccc2[C@@H](C(=O)NC2CC2)[C@@H]1c1ccc(CO)cc1

1: -0.0611; 2: 0.484; 3: 0.0701; 4: 0.42; 5: -0.0518; 6: -0.0035; 7: 0.16

* * *

# targetEntity: Follistatin (Homo sapiens) (UniProt P19883)
# Sequence (P19883 whole entry, looked up): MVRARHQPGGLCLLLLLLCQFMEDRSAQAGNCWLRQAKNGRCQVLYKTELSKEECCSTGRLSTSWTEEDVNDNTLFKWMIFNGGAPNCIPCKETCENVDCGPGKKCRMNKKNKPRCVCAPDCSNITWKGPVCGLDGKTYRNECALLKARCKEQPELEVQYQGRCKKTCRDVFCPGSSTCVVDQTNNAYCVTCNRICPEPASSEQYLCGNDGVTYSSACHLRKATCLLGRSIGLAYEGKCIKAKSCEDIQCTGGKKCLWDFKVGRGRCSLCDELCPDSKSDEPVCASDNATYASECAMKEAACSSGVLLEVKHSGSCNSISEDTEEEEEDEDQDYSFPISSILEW
# method: follistatin binders on small-molecule microarrays, primary screen, biochemical, small-molecule microarray, 635/667 nm fluorescence (AID 1132)
# conditionLabel: FST binding, 635 nm fluorescence, higher = more signal
Recorded composite z-score determines the group label, using Low = under 0.4, Medium = from 0.4 up to 0.8, High = 0.8 and over

Solved cases (6 shown):
[
  {
    "molecule": "CCCC[C@H]1OB(O)C[C@H]2C1=C(COC)Cn1c(=O)n(-c3ccccc3)c(=O)n12",
    "targetEntity": "Follistatin (Homo sapiens) (UniProt P19883)",
    "classAssignment": "Medium"
  },
  {
    "molecule": "C=CCNC(=O)[C@@H]1[C@H]2C(=O)O[C@H](c3ccccc3)[C@H](c3ccccc3)N2[C@H](c2ccc(O)cc2)[C@@]12C(=O)Nc1ccc(C#CCNC(N)=O)cc12",
    "targetEntity": "Follistatin (Homo sapiens) (UniProt P19883)",
    "classAssignment": "High"
  },
  {
    "molecule": "NC(=O)NCC#Cc1ccc2c(c1)[C@]1(C(=O)N2)[C@H](C(N)=O)[C@H]2C(=O)O[C@H](c3ccccc3)[C@H](c3ccccc3)N2[C@@H]1c1ccc(O)cc1",
    "targetEntity": "Follistatin (Homo sapiens) (UniProt P19883)",
    "classAssignment": "Low"
  },
  {
    "molecule": "C[C@@]1([C@@H](NC(=O)c2ccc(-c3ccccc3)cc2)c2ccc(Cl)cc2)C[C@H]1C1CCCCC1",
    "targetEntity": "Follistatin (Homo sapiens) (UniProt P19883)",
    "classAssignment": "Medium"
  },
  {
    "molecule": "CCCC=C(CCC)[C@@H](NC(=O)c1cccs1)c1ccc(C(F)(F)F)cc1",
    "targetEntity": "Follistatin (Homo sapiens) (UniProt P19883)",
    "classAssignment": "Medium"
  },
  {
    "molecule": "CC(C)CNC(=O)[C@@]1(Cc2ccccc2I)c2ccccc2C(=O)N(C2CCCCC2)[C@H]1c1ccc(CO)cc1",
    "targetEntity": "Follistatin (Homo sapiens) (UniProt P19883)",
    "classAssignment": "Low"
  }
]

Which bin, given its composite z-score, does COC(=O)[C@]1(CCC(=O)OC(C)(C)C)N=C(c2ccc(OCCCO)cc2)O[C@@H]1c1ccccc1CN=[N+]=[N-] occupy?
High

Which bin, given its composite z-score, does [N-]=[N+]=NCc1ccccc1C[C@]1(C(=O)N2CCCCC2)N=C(c2ccc(OCCCO)cc2)O[C@H]1c1ccccc1N=[N+]=[N-] occupy?
High

Which bin, given its composite z-score, does COc1cc(Br)cc(C(O)C2C=CC3C(=O)N(C)C(=O)C3N2N2CCCCC2)c1OC (stereo not given) occupy?
Low

Which bin, given its composite z-score, does C=C(COC)/C(=C/C[C@H](OC(C)=O)c1ccc(CO)o1)c1cc(C(=O)OC)ccc1OC occupy?
Medium

Which bin, given its composite z-score, does COc1cc(NN2C(C(O)c3ccco3)C=CC3C(=O)N(c4ccccc4)C(=O)C32)cc(OC)c1OC (stereo not given) occupy?
Low

Which bin, given its composite z-score, does COCCOC(=O)N1C(=O)[C@@]2(c3ccccc31)[C@H](C(=O)N1CCc3cc(OC)c(OC)cc3C1)[C@H]1C(=O)O[C@H](c3ccccc3)[C@H](c3ccccc3)N1[C@@H]2c1ccc(OCCO)cc1 occupy?
High

Which bin, given its composite z-score, does O=C1C2C=CC(C(O)c3cccc4ccccc34)N(Nc3ccccc3F)C2C(=O)N1c1ccccc1 (stereo not given) occupy?
High

Which bin, given its composite z-score, does COC(=O)C(CC#Cc1ccc2c(c1)[C@]1(C(=O)N2)[C@H](C(=O)Nc2nc3ccccc3s2)[C@H]2C(=O)O[C@H](c3ccccc3)[C@H](c3ccccc3)N2[C@@H]1c1ccc(O)cc1)C(=O)OC occupy?
High

Which bin, given its composite z-score, does CCCCC(CC)C(O)C1C=CC2C(=O)N(Cc3ccccc3)C(=O)C2N1n1cnnc1 (stereo not given) occupy?
Medium
